Reported composite z-score values for the following compounds.
test_summary: compound binding in COS7 lysate, probe aLAP1, primary screen, cell lysate, small-molecule microarray (AID 1124);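 note: lysate comes from COS7 cells expressing LAP1 and is applied at 0.3 µg/mL; score merges spot fluorescence near 667 nm with signal-to-noise over triplicate slides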
reported_conditions: probe aLAP1, fluorescence, higher = more signal
When you answer, write just the number.

# compound, composite z-score
records = [
    ("CCOC(=O)C[C@H]1[C@H](OC(=O)c2cc3ccccc3oc2=O)[C@@H](NC(=O)c2ccccc2)c2cc(OCCCO)ccc2N1C(=O)c1ccc2ccccc2n1", 0.0418),
    ("Cc1nc2cc(Br)ccc2c(=O)o1", 0.108),
    ("O=C1N[C@@H](Cc2ccccc2)C(=O)N2[C@@H]1C[C@@H](C(=O)O)[C@H]2c1cccc(OCCO)c1", 0.256),
]

-- ask Check the records and state composite z-score for COCCOC(=O)N1C(=O)[C@@]2(c3ccccc31)[C@H](c1ccc(O)cc1)N1[C@H](c3ccccc3)[C@H](c3ccccc3)OC(=O)[C@H]1[C@@H]2C(=O)Nc1nc2ccccc2s1
-- reply 0.384

-- ask Check the records and state composite z-score for COCCOC(=O)N1C(=O)[C@@]2(c3cc(C#CCCO)ccc31)[C@H](C(=O)N1CCCCCCC1)[C@H]1C(=O)O[C@H](c3ccccc3)[C@H](c3ccccc3)N1[C@@H]2c1ccc(OCCO)cc1
-- reply 0.906

-- ask Check the records and state composite z-score for COC(=O)[C@@]1(Cc2ccc(OC)cc2)[C@@H]2C(=CC(=O)[C@H]2CC(=O)C(=O)N2CCCC2)CN1C(=O)c1ccccc1
-- reply 0.0014

-- ask Check the records and state composite z-score for CCCCCCc1nc(-c2ccc(OC)nc2)cc2c1[Si](C(C)C)(C(C)C)O[C@H]2c1ccccc1
-- reply -0.08

-- ask Check the records and state composite z-score for CC(C)C(=C=CC[C@@H](O)c1ccc(OCCO)cc1)C[C@@H](O)COCc1ccccc1
-- reply 0.664

-- ask Check the records and state composite z-score for O=C1OCCC/C=C\[C@H]2OC34C=CCN(Cc5ccccc5)C(=O)[C@H]3N(CCCO)C(=O)[C@@H]4C12 (stereo partly specified)
-- reply 1.59

====

test_summary: splicing luciferase reporter signal modulators, primary screen, spliceosome inhibition project, cell-based, HEK293, splice +/- reporter (AID 1101);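 note: HEK293 cells carrying a splicing-competent luciferase reporter gene; test concentration not given here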
reported_conditions: luminescence, 24 h, higher = more signal, called active from +8 up or from −8 down
property_label: z-score
When you answer, write just the number.

# annotated cases, reported z-score shown
# structure_as_smiles, property_label, observed_result
data = [
    ("CN(C)CCCCCCNC(=O)[C@H]1C[C@H]2C(=O)N3CCC[C@H]3C(=O)N2[C@H]1c1ccc(O)cc1", "z-score", -0.8),
    ("CCOC(=O)C[C@H]1[C@H](OC(=O)c2ccc(C(=O)c3ccccc3)cc2)[C@@H](NC(=O)CC(C)C)c2cc(OCCCO)ccc2N1C(=O)c1ccc2ccccc2n1", "z-score", -0.202),
    ("CCOC(=O)C[C@H]1[C@H](OC(=O)c2ccc(-c3ccccc3)cc2)[C@@H](NC(=O)Cc2ccc(OC)cc2)c2cc(OCCCO)ccc2N1C(=O)c1ccccc1", "z-score", 0.122),
]

Please look at the following compound next.
-- ask Check the records and state z-score for O=C1O[C@@H](c2ccccc2)[C@@H](c2ccccc2)N2[C@@H](c3ccccc3OCCO)[C@]3(C(=O)Nc4ccccc43)[C@@H](C(=O)Nc3nc4ccccc4s3)[C@H]12
-- reply -1.86
